Target: panel of 442 kinases (Homo sapiens)
Construct: purchased Ambit Biosciences (scanMAXX KINOMEscan)
Sequence (P52333 1-1124): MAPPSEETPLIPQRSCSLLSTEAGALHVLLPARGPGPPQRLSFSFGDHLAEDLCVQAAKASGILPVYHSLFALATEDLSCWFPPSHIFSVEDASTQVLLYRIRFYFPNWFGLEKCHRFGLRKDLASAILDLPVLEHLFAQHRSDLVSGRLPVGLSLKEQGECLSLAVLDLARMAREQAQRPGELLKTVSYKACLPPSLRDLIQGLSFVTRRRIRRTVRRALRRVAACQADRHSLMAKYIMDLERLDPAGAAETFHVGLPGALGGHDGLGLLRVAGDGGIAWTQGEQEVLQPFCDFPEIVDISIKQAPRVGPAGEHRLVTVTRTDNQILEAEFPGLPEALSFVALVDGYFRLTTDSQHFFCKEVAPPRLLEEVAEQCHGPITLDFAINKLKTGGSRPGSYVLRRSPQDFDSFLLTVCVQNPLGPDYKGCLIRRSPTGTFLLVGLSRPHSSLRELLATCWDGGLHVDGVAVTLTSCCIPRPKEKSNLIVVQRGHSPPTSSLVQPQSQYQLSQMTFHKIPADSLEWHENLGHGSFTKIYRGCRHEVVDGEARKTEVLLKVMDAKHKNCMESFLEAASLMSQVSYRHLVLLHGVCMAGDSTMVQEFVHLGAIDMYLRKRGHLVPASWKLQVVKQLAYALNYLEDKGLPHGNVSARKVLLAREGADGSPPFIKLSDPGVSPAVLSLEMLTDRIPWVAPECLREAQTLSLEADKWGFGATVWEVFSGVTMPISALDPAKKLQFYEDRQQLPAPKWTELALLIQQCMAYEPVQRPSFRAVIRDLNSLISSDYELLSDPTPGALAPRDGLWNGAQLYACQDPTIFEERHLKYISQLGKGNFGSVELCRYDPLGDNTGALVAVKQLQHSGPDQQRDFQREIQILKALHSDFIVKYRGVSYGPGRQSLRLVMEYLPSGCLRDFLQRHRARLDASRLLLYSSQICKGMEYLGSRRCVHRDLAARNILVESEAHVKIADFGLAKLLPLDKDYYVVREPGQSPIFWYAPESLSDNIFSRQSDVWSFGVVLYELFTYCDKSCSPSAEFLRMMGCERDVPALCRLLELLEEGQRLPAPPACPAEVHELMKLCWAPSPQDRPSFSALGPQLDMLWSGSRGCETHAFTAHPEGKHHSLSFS
Assay: biochemical
Type: binding
Conditions: kinase JAK3(JH1domain-catalytic); 1 µM; read-out: % of control at 1 µM

{"columns": ["STRUCTURE_SMILES_STRING", "remaining activity at 1 µM"],
 "data": [
  ["Cn1c(=O)n(-c2ccc(C(C)(C)C#N)cc2)c2c3cc(-c4cnc5ccccc5c4)ccc3ncc21", "37%"],
  ["Nc1cc(C(F)(F)F)c(-c2cc(N3CCOCC3)nc(N3CCOCC3)n2)cn1", "90%"],
  ["COc1ncc(-c2ccc3nccc(-c4ccnnc4)c3c2)cc1NS(=O)(=O)c1ccc(F)cc1F", "82%"],
  ["FC(F)c1nc2ccccc2n1-c1nc(N2CCOCC2)nc(N2CCOCC2)n1", "100%"]
]}

* * *

biological target: panel of 442 kinases (Homo sapiens); construct: purchased Ambit Biosciences (scanMAXX KINOMEscan); experiment: biochemical; assay type: binding; conditions: kinase PYK2; 1 µM; read-out: PYK2 (% of control at 1 µM)

{"columns": ["STRUCTURE_SMILES_STRING", "remaining activity at 1 µM, %"],
 "data": [
  ["FC(F)c1nc2ccccc2n1-c1nc(N2CCOCC2)nc(N2CCOCC2)n1", 100],
  ["Nc1cc(C(F)(F)F)c(-c2cc(N3CCOCC3)nc(N3CCOCC3)n2)cn1", 100],
  ["COc1ncc(-c2ccc3nccc(-c4ccnnc4)c3c2)cc1NS(=O)(=O)c1ccc(F)cc1F", 100],
  ["Cn1c(=O)n(-c2ccc(C(C)(C)C#N)cc2)c2c3cc(-c4cnc5ccccc5c4)ccc3ncc21", 86]
]}

* * *

target: panel of 442 kinases (Homo sapiens, UniProt Q9UF33); construct: purchased Ambit Biosciences (scanMAXX KINOMEscan); assay: biochemical; assay type: binding; details: EPHA6; 1 µM; read-out: % of control at 1 µM
Sequence (Q9UF33 23-1036): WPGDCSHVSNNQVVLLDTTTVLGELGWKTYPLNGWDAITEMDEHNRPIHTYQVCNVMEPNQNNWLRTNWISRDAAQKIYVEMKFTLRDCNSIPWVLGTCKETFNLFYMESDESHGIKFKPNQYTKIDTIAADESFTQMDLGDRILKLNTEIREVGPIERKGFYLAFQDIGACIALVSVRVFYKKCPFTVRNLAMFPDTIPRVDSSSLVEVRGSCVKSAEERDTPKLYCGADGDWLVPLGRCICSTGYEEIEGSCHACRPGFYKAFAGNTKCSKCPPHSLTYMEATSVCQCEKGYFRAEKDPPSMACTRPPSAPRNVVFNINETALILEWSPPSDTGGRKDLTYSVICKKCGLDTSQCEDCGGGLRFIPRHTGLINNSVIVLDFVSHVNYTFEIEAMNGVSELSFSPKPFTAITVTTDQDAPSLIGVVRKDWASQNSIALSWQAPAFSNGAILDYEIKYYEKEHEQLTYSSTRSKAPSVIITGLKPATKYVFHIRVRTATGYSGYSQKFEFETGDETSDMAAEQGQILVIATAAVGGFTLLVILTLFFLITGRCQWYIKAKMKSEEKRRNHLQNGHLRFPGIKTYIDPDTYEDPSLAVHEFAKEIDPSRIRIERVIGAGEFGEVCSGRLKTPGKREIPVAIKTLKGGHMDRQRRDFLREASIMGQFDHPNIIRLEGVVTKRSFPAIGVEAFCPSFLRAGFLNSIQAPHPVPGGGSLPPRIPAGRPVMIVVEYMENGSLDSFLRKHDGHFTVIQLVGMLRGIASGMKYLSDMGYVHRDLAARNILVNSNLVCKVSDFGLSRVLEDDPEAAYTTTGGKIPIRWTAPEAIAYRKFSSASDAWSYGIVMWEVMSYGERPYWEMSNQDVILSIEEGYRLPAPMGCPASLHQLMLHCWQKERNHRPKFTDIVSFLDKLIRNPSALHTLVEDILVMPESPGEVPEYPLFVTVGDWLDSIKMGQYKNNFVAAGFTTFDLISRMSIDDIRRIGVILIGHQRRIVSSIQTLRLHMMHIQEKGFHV
Overview of reported remaining activity at 1 µM across a group of compounds:

{"columns": ["STRUCTURE_SMILES_STRING", "remaining activity at 1 µM"],
 "data": [
  ["FC(F)c1nc2ccccc2n1-c1nc(N2CCOCC2)nc(N2CCOCC2)n1", "88%"],
  ["Cn1c(=O)n(-c2ccc(C(C)(C)C#N)cc2)c2c3cc(-c4cnc5ccccc5c4)ccc3ncc21", "94%"],
  ["Nc1cc(C(F)(F)F)c(-c2cc(N3CCOCC3)nc(N3CCOCC3)n2)cn1", "93%"],
  ["COc1ncc(-c2ccc3nccc(-c4ccnnc4)c3c2)cc1NS(=O)(=O)c1ccc(F)cc1F", "100%"]
]}

* * *

Some compounds, each annotated with its measured remaining activity at 1 µM.
molecular target: panel of 442 kinases (Homo sapiens, UniProt P51957); construct: purchased Ambit Biosciences (scanMAXX KINOMEscan); experiment: biochemical; format: binding; conditions: kinase NEK4; 1 µM; read-out: % of control at 1 µM
Sequence (P51957 whole entry): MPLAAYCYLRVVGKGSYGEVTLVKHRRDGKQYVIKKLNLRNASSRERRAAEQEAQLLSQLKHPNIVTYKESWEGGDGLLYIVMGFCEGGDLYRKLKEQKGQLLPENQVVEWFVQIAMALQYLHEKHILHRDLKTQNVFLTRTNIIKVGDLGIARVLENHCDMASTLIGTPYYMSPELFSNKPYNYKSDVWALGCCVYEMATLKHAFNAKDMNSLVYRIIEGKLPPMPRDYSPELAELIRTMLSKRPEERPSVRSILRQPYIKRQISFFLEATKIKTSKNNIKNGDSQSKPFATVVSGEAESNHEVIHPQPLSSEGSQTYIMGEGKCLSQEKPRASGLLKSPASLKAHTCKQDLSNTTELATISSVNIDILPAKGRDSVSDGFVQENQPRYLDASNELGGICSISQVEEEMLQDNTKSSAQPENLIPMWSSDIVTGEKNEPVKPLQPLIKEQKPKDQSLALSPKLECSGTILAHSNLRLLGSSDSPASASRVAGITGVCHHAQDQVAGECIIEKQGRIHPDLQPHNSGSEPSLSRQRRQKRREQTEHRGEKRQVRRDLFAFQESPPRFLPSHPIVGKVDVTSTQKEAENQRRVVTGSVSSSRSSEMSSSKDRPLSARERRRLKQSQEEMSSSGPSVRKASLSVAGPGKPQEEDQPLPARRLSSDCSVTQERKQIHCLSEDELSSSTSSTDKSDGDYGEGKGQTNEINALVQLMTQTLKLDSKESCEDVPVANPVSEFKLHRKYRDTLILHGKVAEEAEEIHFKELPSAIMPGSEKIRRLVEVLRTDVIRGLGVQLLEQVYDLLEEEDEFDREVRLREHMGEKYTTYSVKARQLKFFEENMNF

{"columns": ["STRUCTURE_SMILES_STRING", "UNIT_ABBREV", "remaining activity at 1 µM"],
 "data": [
  ["COc1ncc(-c2ccc3nccc(-c4ccnnc4)c3c2)cc1NS(=O)(=O)c1ccc(F)cc1F", "%", 100],
  ["Nc1cc(C(F)(F)F)c(-c2cc(N3CCOCC3)nc(N3CCOCC3)n2)cn1", "%", 77],
  ["FC(F)c1nc2ccccc2n1-c1nc(N2CCOCC2)nc(N2CCOCC2)n1", "%", 100],
  ["Cn1c(=O)n(-c2ccc(C(C)(C)C#N)cc2)c2c3cc(-c4cnc5ccccc5c4)ccc3ncc21", "%", 88]
]}

* * *

test: Rat dose proportionality study (oral); conditions: male, Sprague-Dawley, plasma, 100 mg/kg

{"columns": ["MOLECULE", "Tmax (h)"],
 "data": [
  ["COc1cccc2c1nc(C(F)F)n2-c1nc(N2CCOCC2)nc(N2CCN(S(=O)(=O)CCN(C)C)CC2)n1 [SN32976]", 1]
]}

* * *

target: panel of 442 kinases (Homo sapiens, UniProt P00519, Q252H); construct: purchased Ambit Biosciences (scanMAXX KINOMEscan); assay: biochemical; assay type: binding; settings: ABL1(Q252H)-nonphosphorylated; 1 µM; read-out: % of control at 1 µM
Let's look at some compounds and their measured remaining activity at 1 µM.

{"columns": ["COMPOUND", "remaining activity at 1 µM [%]"],
 "data": [
  ["Nc1cc(C(F)(F)F)c(-c2cc(N3CCOCC3)nc(N3CCOCC3)n2)cn1 [Buparlisib]", 100],
  ["FC(F)c1nc2ccccc2n1-c1nc(N2CCOCC2)nc(N2CCOCC2)n1 [ZSTK474]", 100],
  ["Cn1c(=O)n(-c2ccc(C(C)(C)C#N)cc2)c2c3cc(-c4cnc5ccccc5c4)ccc3ncc21 [Dactolisib]", 57],
  ["COc1ncc(-c2ccc3nccc(-c4ccnnc4)c3c2)cc1NS(=O)(=O)c1ccc(F)cc1F [Omipalisib]", 100]
]}

* * *

Molecular target: panel of 442 kinases (Homo sapiens, UniProt Q99683)
Construct: purchased Ambit Biosciences (scanMAXX KINOMEscan)
Sequence (Q99683 1-1374): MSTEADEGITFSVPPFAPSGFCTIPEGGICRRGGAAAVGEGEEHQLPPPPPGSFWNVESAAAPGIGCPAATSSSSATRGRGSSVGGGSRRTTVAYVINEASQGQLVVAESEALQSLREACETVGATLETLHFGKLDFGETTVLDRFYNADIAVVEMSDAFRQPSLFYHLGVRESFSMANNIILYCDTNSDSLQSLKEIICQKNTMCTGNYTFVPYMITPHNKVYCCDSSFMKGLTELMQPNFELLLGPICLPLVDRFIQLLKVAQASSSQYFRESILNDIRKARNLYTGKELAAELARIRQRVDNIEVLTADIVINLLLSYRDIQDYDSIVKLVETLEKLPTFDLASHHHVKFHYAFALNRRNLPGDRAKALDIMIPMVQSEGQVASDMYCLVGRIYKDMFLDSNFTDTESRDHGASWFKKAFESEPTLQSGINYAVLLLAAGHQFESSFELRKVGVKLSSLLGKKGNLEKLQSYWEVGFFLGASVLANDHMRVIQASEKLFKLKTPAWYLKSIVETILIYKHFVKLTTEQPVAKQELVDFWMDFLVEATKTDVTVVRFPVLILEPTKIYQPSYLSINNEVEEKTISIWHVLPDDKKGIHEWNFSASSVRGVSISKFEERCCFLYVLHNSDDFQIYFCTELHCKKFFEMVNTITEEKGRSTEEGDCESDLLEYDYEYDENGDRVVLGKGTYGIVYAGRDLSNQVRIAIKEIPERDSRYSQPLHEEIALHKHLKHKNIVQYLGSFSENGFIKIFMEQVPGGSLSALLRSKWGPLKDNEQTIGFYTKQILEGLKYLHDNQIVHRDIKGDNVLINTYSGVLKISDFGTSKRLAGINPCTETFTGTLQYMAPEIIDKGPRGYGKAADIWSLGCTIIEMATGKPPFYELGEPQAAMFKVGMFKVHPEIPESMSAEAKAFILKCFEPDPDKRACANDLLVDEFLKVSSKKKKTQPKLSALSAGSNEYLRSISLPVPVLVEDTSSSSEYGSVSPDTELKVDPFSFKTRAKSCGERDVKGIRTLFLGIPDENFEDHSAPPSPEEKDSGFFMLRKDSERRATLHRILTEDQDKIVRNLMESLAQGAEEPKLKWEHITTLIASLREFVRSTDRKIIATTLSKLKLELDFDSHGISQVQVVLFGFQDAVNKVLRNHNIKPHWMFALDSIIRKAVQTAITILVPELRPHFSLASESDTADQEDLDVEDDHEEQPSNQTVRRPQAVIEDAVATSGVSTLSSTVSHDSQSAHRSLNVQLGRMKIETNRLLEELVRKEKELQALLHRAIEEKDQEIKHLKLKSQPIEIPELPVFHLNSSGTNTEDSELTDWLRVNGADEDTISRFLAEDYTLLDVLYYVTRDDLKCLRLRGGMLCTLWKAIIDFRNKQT
Experiment: biochemical
Assay type: binding
Conditions: ASK1; 1 µM; read-out: % of control at 1 µM
OBSERVATION_TYPE: remaining activity at 1 µM (%)

{"columns": ["STRUCTURE_SMILES_STRING", "READOUT_VALUE"],
 "data": [
  ["COc1ncc(-c2ccc3nccc(-c4ccnnc4)c3c2)cc1NS(=O)(=O)c1ccc(F)cc1F", 100],
  ["FC(F)c1nc2ccccc2n1-c1nc(N2CCOCC2)nc(N2CCOCC2)n1", 100],
  ["Cn1c(=O)n(-c2ccc(C(C)(C)C#N)cc2)c2c3cc(-c4cnc5ccccc5c4)ccc3ncc21", 100],
  ["Nc1cc(C(F)(F)F)c(-c2cc(N3CCOCC3)nc(N3CCOCC3)n2)cn1", 87]
]}
